test system: Influenza A virus; test: Antiviral activity against Influenza A virus (A/PR 8/34 (H1N1)) infected in MDCK cells assessed as reduction in virus-induced cytopathic effect measured after 72 hrs by microscopic analysis; type: functional, organism-based; conditions: A/Puerto Rico/8/1934(H1N1)
Quantity Name: EC50

Observe how each entry below is paired with its result.
> print(dat)
                                   compound  quantity.name  reported.measurement
1  COC(=O)C[C@H](NC(=O)OC(C)(C)C)C(=O)NC1(C(=O)NCc2ccccc2)CCN(Cc2ccccc2)CC1           EC50              > 100 µM
2  COC(=O)C[C@H](NC(=O)OC(C)(C)C)C(=O)N(Cc1ccc(C(F)(F)F)cc1)C1(C(=O)NCc2ccccc2)CCN(Cc2ccccc2)CC1           EC50              > 100 µM

As a next step, examine the compound that follows.
Task: Give recorded EC50 with Influenza A virus for the following compound: COC(=O)C[C@H](NC(=O)OC(C)(C)C)C(=O)N(Cc1ccc(F)cc1)C1(C(=O)NCc2ccccc2)CC[N+](C)(Cc2ccccc2)CC1 (stereo partly drawn)
Result: > 100 µM
